MEASURED ENDPOINT: glass transition temperature (°C)

COMPOUND	U	glass transition temperature
*Oc1ccc(S(=O)(=O)c2ccc(OC(=O)c3ccc([Si](C)(C)c4ccc(C(*)=O)cc4)cc3)cc2)cc1 (repeat unit)	°C	235.00

A: *Oc1cccc(Oc2ccc(Oc3cccc(OC(=O)c4ccc(C(*)=O)cc4)c3)cc2)c1 (repeat unit)
B: *c1ccc(OC(=O)c2cccc(C(=O)Oc3ccc(C4(*)OC(=O)c5ccccc54)cc3C)c2)c(C)c1 (repeat unit)
C: *Oc1ccc(Oc2ccc(C(=O)c3cccc(C(=O)c4ccc(*)cc4)c3)cc2)cc1 (repeat unit)
D: *CCOC(=O)CCCCCCCCC(=O)OCCOC(=O)c1ccc(C(=O)O*)cc1 (repeat unit)
Ascending by glass transition temperature, please. Answer by naming the labels in the order asked.
D, A, C, B

* * *

MEASURED ENDPOINT: glass transition temperature (°C)

Example entries begin here.
COMPOUND	MEASURED ENDPOINT	DATA VALUE
*CCCCCCN(C)C(=O)CCCC(=O)N(*)C (repeat unit)	glass transition temperature	3.00
*c1ccc(-c2cc(-c3ccc(-c4ccccc4)cc3)cc(-c3ccc(N4C(=O)c5ccc(NC(=O)Nc6ccc(NC(=O)Nc7ccc8c(c7)C(=O)N(*)C8=O)cc6)cc5C4=O)cc3)n2)cc1 (repeat unit)	glass transition temperature	243.00
*CC(*)(C)C(=O)OCCCCOc1ccc2cc(C(=O)Oc3ccccc3)ccc2c1 (repeat unit)	glass transition temperature	88.00
*CC(=O)Nc1ccc(Oc2ccc(Oc3ccc(NC(=O)CN4C(=O)c5ccc(C(c6ccc7c(c6)C(=O)N(*)C7=O)(C(F)(F)F)C(F)(F)F)cc5C4=O)cc3)cc2)cc1 (repeat unit)	glass transition temperature	242.00
*C(=O)NCCCCCCNC(=O)c1ccc(*)nc1 (repeat unit)	glass transition temperature	80.00

A: *C(=O)c1ccc2c(c1)C(=O)N(c1ccc(Oc3c(C)cc(C(c4cc(C)c(Oc5ccc(N6C(=O)c7ccc(*)cc7C6=O)cc5)c(C)c4)c4cccc5ccccc45)cc3C)cc1)C2=O (repeat unit)
B: *O[Si](C)(C)O[Si](*)(C)CCCCCCCCOc1ccc(C(=O)Oc2ccc(C#N)cc2C)cc1 (repeat unit)
Please indicate which item has the smaller measured glass transition temperature: A versus B State your choice using its label.
B
(B: -15.00 °C, A: 272.00 °C)

* * *

MEASURED ENDPOINT: glass transition temperature (°C)

COMPOUND	glass transition temperature, °C
*c1ccc(Oc2ccc(-c3ccc(Oc4ccc(N5C(=O)c6cccc(Oc7ccc(C(C)(C)c8ccc(Oc9cccc%10c9C(=O)N(*)C%10=O)cc8)cc7)c6C5=O)cc4)cc3)cc2)cc1 (repeat unit)	236.00

a: *c1ccc(Oc2ccc(N3C(=O)C(C)C(SCCOCCSC4C(=O)N(c5ccc(Oc6ccc(N7C(=O)CC(C)(SCCOCCSC8(C)CC(=O)N(*)C8=O)C7=O)cc6)cc5)C(=O)C4C)C3=O)cc2)cc1 (repeat unit)
b: *c1ccc(-c2ccc(-c3ccc(-c4ccc(-c5cc(-c6ccccc6)c6cc(-c7ccc8nc(*)cc(-c9ccccc9)c8c7)ccc6n5)cc4)cc3)cc2)cc1 (repeat unit)
Which one would you say has the larger glass transition temperature value: a , or b ? Your answer should be the label of the entry you select.
b
(b: 355.00 °C, a: 145.00 °C)

* * *

MEASURED ENDPOINT: glass transition temperature (°C)

Known results for compounds:
COMPOUND	MEASURED ENDPOINT	DATA VALUE
*c1ccc(S(=O)(=O)c2ccc(-n3nc(-c4ccccc4)c4ccc(Oc5ccc6c(-c7ccccc7)nn(*)c(=O)c6c5)cc4c3=O)cc2)cc1 (repeat unit)	glass transition temperature	294.50
*Oc1ccc(NC(=O)NC2CC(C)(C)CC(C)(CNC(=O)Nc3ccc(*)cc3)C2)cc1 (repeat unit)	glass transition temperature	274.00
*/C(=C/c1cc(OC)c(/C=C(\c2ccc(F)cc2)c2ccc3cc(*)ccc3c2)cc1OC)c1ccc(F)cc1 (repeat unit)	glass transition temperature	208.00
*CC(COCCOCCOC)O* (repeat unit)	glass transition temperature	-57.00
*CCOC(=O)C1CCC(C(=O)OCCOc2ccc(C3(c4ccc(O*)cc4)c4ccccc4-c4ccccc43)cc2)CC1 (repeat unit)	glass transition temperature	120.1

a: *CCCCCCC(=O)Oc1ccc(OC(=O)c2ccc3c(c2)C(=O)N(*)C3=O)cc1 (repeat unit)
b: *c1ccc(Oc2ccc(C(c3ccc(Oc4ccc(-c5nnc(*)c6c(-c7ccccc7)c(-c7ccc8ccccc8c7)c(-c7ccc8ccccc8c7)c(-c7ccccc7)c56)cc4)cc3)(C(F)(F)F)C(F)(F)F)cc2)cc1 (repeat unit)
For a and b , which recorded glass transition temperature is lower? # respond with the chosen item's label
a

A: *c1ccc(-c2cc(-c3ccc(-c4ccccc4)cc3)cc(-c3ccc(N4C(=O)c5ccc(NC(=O)Nc6ccc(-c7cc(-c8ccc(-c9ccccc9)cc8)cc(-c8ccc(NC(=O)Nc9ccc%10c(c9)C(=O)N(*)C%10=O)cc8)n7)cc6)cc5C4=O)cc3)n2)cc1 (repeat unit)
B: *CC(F)(F)C1(F)CC(C(O)(C(F)(F)F)C(F)(F)F)CC1* (repeat unit)
Lab note: check whether A or B has the lower measured glass transition temperature. Kindly state the label of the option you pick.
B
(B: 118.00 °C, A: 272.00 °C)
